test system: SOX17 (endoderm marker) in RUES2-GLR cells; test: DevTox GLR-Endo assay: decrease in percent SOX17-positive cells (AEID 3094, Sox17_dn); settings: Table S2, percent SOX17-positive cells relative to DMSO
Checkbox rule: DevTox % Max Inhibition lower than 20% = t; DevTox % Max Inhibition not lower than 20% = f.

compound	discrete-label
CC(O)CO (stereo not drawn)	t
OB(O)O	t
CC1=C(/C=C/C(C)=C/C=C/C(C)=C\C(=O)O)C(C)(C)CCC1	f

[Q] Take the compound C=CC(N)=O [Acrylamide] and say whether its DevTox % Max Inhibition is less than 20%.
[A] t

[Q] is_below(DevTox % Max Inhibition, 20%) for CCCCC(CC)COC(=O)c1ccccc1C(=O)O (stereo not drawn) ?
[A] f

[Q] For NC(=O)NO [Hydroxyurea] , is the recorded DevTox % Max Inhibition below the cut-off of 20%?
[A] t

---

test system: RUES2-GLR cells; experiment: in vitro
parameter-measured: Cell Count ACC (µM)
Number in µM, nothing else.

Some solved entries appear below for comparison.
compound	parameter-measured	unit-name	reported
CCCCC(CC)COC(=O)c1ccccc1C(=O)O (stereo not shown)	Cell Count ACC	µM	61.5464
CC1=C(/C=C/C(C)=C/C=C/C(C)=C\C(=O)O)C(C)(C)CCC1	Cell Count ACC	µM	4.122

We now examine a further compound.
[Q] So what does the record say about Cell Count ACC for C[C@@H]1C[C@H]2[C@@H]3CCC4=CC(=O)C=C[C@]4(C)[C@@]3(F)[C@@H](O)C[C@]2(C)[C@@]1(O)C(=O)CO ?
[A] 13.83

---

system: SOX17 (endoderm marker) in RUES2-GLR cells; test: DevTox GLR-Endo assay: decrease in percent SOX17-positive cells (AEID 3094, Sox17_dn); conditions: Homo sapiens, read-out: ga (winning model), tcpl plot AEID3094, gain parameter of winning curve fit (log concentration, µM axis), hit calls only (converted)
Counter-ions that a name gives are not always drawn.
Label condition met when AC50 < 2 µM; otherwise condition not met.

compound	discrete-label
Nc1cccc2c1C(=O)N(C1CCC(=O)NC1=O)C2=O (stereo not drawn) [Pomalidomide]	condition met
Oc1cc(O)c2c(c1)O[C@H](c1ccc(O)c(O)c1)[C@@H](O)C2	condition not met
COc1ccc2nc([S@@+]([O-])Cc3ncc(C)c(OC)c3C)[nH]c2c1	condition not met
c1cc(-c2cnn3cc(-c4ccc(OCCN5CCCCC5)cc4)cnc23)ccn1	condition not met
O=C1CCC(N2C(=O)c3ccccc3C2=O)C(=O)N1 (stereo not drawn) [Thalidomide]	condition met
CC(C)(c1ccc(O)cc1)c1ccc(O)cc1	condition not met
[H]/N=C(/NCCCCC)N/N=C/c1c[nH]c2ccc(OC)cc12 [Tegaserod Maleate]	condition not met
CC[C@H](C)C(=O)O[C@H]1C[C@@H](C)C=C2C=C[C@H](C)[C@H](CC[C@@H]3C[C@@H](O)CC(=O)O3)[C@H]21	condition not met

[Q] AC50 under 2 µM? Item: CCN(CC)CCNC(=O)c1c(C)[nH]c(/C=C2\C(=O)Nc3ccc(F)cc32)c1C
[A] condition met

---

Here the recorded CC50 at 48 h is given for each entry.
assay: in vitro; conditions: human
// note: answer is a bare numeric in µM

Example results:
compound	CC50 at 48 h (µM)
Cc1nc(Nc2ncc(C(=O)Nc3c(C)cccc3Cl)s2)cc(N2CCN(CCO)CC2)n1 [Dasatinib]	0.05
CC/C(=C(/CC)c1ccc(O)cc1)c1ccc(O)cc1 [Diethylstilbestrol]	0.71
O=C(c1ccc(F)cc1)C1CCN(CCn2c(=O)[nH]c3ccccc3c2=O)CC1 [Ketanserin]	57.5
COc1cc2ncnc(Nc3ccc(F)c(Cl)c3)c2cc1OCCCN1CCOCC1 [Gefitinib]	6.6
O=c1[nH]c(=O)n([C@H]2C[C@H](O)[C@@H](CO)O2)cc1Br [5-Bromo-2’-deoxyuridine]	9.37
CN1CCN2c3ccccc3Cc3ccccc3C2C1 (stereo not shown) [Mianserin]	33.6
O=C1Cc2cc(CCN3CCN(c4nsc5ccccc45)CC3)c(Cl)cc2N1 [Ziprasidone]	2.42
O=c1[nH]cc(F)c(=O)[nH]1 [5-Fluorouracil]	5.72

[Q] Name the recorded CC50 at 48 h for COc1cccc2c1C(=O)c1c(O)c3c(c(O)c1C2=O)C[C@@](O)(C(=O)CO)C[C@@H]3O[C@H]1C[C@H](N)[C@H](O)[C@H](C)O1 [Doxorubicin] .
[A] 0.0033

[Q] Bench note: what CC50 at 48 h did c1cc(-c2cnn3cc(-c4ccc(OCCN5CCCCC5)cc4)cnc23)ccn1 [Dorsomorphin] show?
[A] 16.7
